# targetEntity: T1, human ARG2 (Homo sapiens, UniProt P78540, E275H/R327K)
# T1 construct: His10 (after a GGG linker) (C); made in house; host or cells: E. coli BL21 (DE3)
# T1 sequence (P78540 23-354 E275H/R327K): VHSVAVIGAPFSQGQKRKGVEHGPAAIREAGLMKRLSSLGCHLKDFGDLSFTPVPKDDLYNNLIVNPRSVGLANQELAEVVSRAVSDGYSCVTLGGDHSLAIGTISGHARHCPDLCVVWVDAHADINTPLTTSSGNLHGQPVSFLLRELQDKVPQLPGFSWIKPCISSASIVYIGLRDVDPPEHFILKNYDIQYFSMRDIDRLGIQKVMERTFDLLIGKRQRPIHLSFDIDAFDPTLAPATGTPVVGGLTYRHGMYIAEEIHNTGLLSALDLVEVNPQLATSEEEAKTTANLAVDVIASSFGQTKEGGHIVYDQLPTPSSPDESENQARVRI
# procedureText: Bio-Layer Interferometry (OctetRED) binding kinetics, human ARG2
# conditionParameters: Fab as analyte; streptavidin capture; analyte 1.8 to 120 nM; affinity-matured antibodies
Let's look at some molecules and their measured kd.
A number alone suffices; assume s⁻¹.

Solved cases (5 shown):
molecule	measurementUnit	kd
C0021061: anti-ARG2 antibody, first generation lead, VH SEQ ID NO: 62, VL SEQ ID NO: 67 (antibody, listed as Homo sapiens, V domains shown, C0021061) VH: EVQLLESGGGLVQPGGSLRLSCAASGFTFSSYAMSWVRQAPGKGLEWVSAKPTDAGSTYYADSVKGRFTISRDNSKNTLYLQMNSLRAEDTAVYYCARLRADLGLYMDLWGRGTLVTVSS VL: QSVLTQPPSVSAAPGQKVTISCSGSSSNIGNHYVSWYQQLPGTAPKLLIYNTVYPKSGIPDRFSGSKSGTSATLGITGLQTGDEADYYCGTWDSSLSALVFGGGTKLTVL	s⁻¹	0.000351
C0021092: anti-ARG2 antibody, VH SEQ ID NO: 92, VL SEQ ID NO: 97 (antibody, listed as Homo sapiens, V domains shown, C0021092) VH: EVQLLESGGGLVQPGGSLRLSCAASGFTFSRYAMSWVRQAPGKGLEWVSAHTHSPGSTYYADSVKGRFTISRDNSKNTLYLQMNSLRAEDTAVYYCARLRADLGLYMDLWGRGTLVTVSS VL: QSVLTQPPSVSAAPGQKVTISCSGSSSNIGNHYVSWYQQLPGTAPKLLIYNSVARPSGIPDRFSGSKSGTSATLGITGLQTGDEADYYCGTWDSSLSALVFGGGTKLTVL	s⁻¹	0.000755
C0021032 Fab (antibody, V domains shown) VH: EVQLLESGGGLVQPGGSLRLSCAASGFTFSSYAMSWVRQAPGKGLEWVSAYGYGIGSTYYADSVKGRFTISRDNSKNTLYLQMNSLRAEDTAVYYCARLRADLGLYMDLWGRGTLVTVSS VL: QSVLTQPPSVSAAPGQKVTISCSGSSSNIGNHYVSWYQQLPGTAPKLLIYDNSERPSGIPDRFSGSKSGTSATLGITGLQTGDEADYYCGTWDSSLSALVFGGGTKLTVL	s⁻¹	0.00228
C0021101 Fab (antibody, V domains shown) VH: EVQLLESGGGLVQPGGSLRLSCAASGFTFSSYAMSWVRQAPGKGPEWVSAISGFSPYYADSVKGRFTISRDNSKNTLYLQMNSLRAEDTAVYYCARLRADLGLYMDLWGRGTLVTVSS VL: QSVLTQPPSVSAAPGQKVTISCSGSSSNIGNHYVSWYQQLPGTAPKLLIYNNRSPTSGIPDRFSGSKSGTSATLGITGLQTGDEADYYCGTWDSSLSALVFGGGTKLTVL	s⁻¹	0.00107
C0021133: anti-ARG2 antibody, VH SEQ ID NO: 192, VL SEQ ID NO: 197 (antibody, listed as Homo sapiens, V domains shown, C0021133) VH: EVQLLESGGGLVQPGGSLRLSCAASGFTFRYDHHVWVRQAPGKGLEWVSAISGSGGSTYYADSVKGRFTISRDNSKNTLYLQMNSLRAEDTAVYYCARLRADLGLYMDLWGRGTLVTVSS VL: QSVLTQPPSVSAAPGQKVTVSCSGSSSNIGNHYVSWYQQLPGTAPKLLIYDTTVLSSGIPDRFSGSKSGTSATLGITGLQTGDEADYYCGTWDELTSNLVFGGGTKLTVL	s⁻¹	0.000449

Now for a further molecule.
*Q* Using the record for C0021142 Fab (antibody, V domains shown) VH: EVQLLESGGGLVQPGGSLRLSCAASGFTFSSYAMSWVRQAPGKGLEWVSAHTHSPGSTYYADSVKGRFTISRDNSKNTLYLQMNSLRAEDTAVYYCARLRADLGLYMDLWGRGTLVTVSS VL: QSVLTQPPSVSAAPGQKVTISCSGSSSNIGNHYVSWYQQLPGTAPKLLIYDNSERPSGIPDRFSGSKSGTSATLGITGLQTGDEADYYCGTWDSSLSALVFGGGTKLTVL , report its kd.
*A* 0.0011
